Protocol text: E. coli growth modulation, two-sided OD650, primary screen, E. coli filamentation project, strain DRC41, 24 h (AID 1093);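 also: MC1000 strain lacking acrAB efflux and sulA so SOS filamentation is blocked; test concentration not given here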
Experimental conditions: OD650, 24 h, higher = more signal, called active from +8 up or from −8 down
Entries and their measured z-score follow.
Lab note: write the figure by itself, no unit.

Please review the entries below; each comes with its answer.
COc1cc2c(cc1OC)CN(C(=O)[C@H]1[C@@H]3C(=O)O[C@@H](c4ccccc4)[C@@H](c4ccccc4)N3[C@@H](c3ccc(O)cc3)[C@]13C(=O)Nc1ccc(C#CCCO)cc13)CC2; 1.32
COc1cccc(-c2cccc(=O)o2)c1; 0.696
O=C1C2C=CC(C(O)c3cccc4ccccc34)N(Nc3ccccc3F)C2C(=O)N1c1ccccc1 (stereo not drawn); -0.316
CC(C)OC(=O)C=C1C[C@@H](c2ccccn2)O[C@@H](c2ccccn2)O1; 0.0183

In: If you can, please state the reported z-score value of NCCCCCNC(=O)[C@@H]1C[C@@H]2C(=O)N[C@@H](Cc3ccccc3)C(=O)N2[C@@H]1c1ccc(O)cc1 .
Out: -0.811

In: If you can, please state the reported z-score value of COC(=O)[C@@]1(Cc2ccccc2)[C@H]2c3cc(C(=O)N4CCCC4)n(Cc4ccc(S(C)(=O)=O)cc4)c3C[C@H]2CN1C(=O)c1ccccc1 .
Out: -0.47

In: If you can, please state the reported z-score value of COc1ccc(CCNC(=O)[C@@H]2c3ccccc3C(=O)N(Cc3ccccc3Cl)[C@H]2c2ccc(CO)cc2)cc1 .
Out: -0.139

In: If you can, please state the reported z-score value of O=C(CS)NCCCCCCNC(=O)[C@@H]1C[C@@H]2C(=O)NCC(=O)N2[C@@H]1c1cccc(OCCO)c1 .
Out: 0.456

---

Tested on: Wnt5a (protein binding on small-molecule microarray)
Protocol text: Wnt5a binders on small-molecule microarray, primary screen, biophysical, 635/667 nm fluorescence (AID 1142);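 also: fluorescence read at 667 nm with signal to noise per printed feature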
Experimental conditions: 635 nm fluorescence, higher = more signal
Entries and their measured composite z-score follow.
Lab note: write the figure by itself, no unit.

In: If you can, please state the reported composite z-score value of [N-]=[N+]=NCc1ccccc1C[C@]1(C(N)=O)COC(c2ccc(OCCCO)cc2)=N1 .
Out: 0.217

In: If you can, please state the reported composite z-score value of C=CCN1C(=O)[C@]2(O[C@H](CCn3cc([C@H](O)c4ccccc4)nn3)[C@@H]([Si](C)(C)c3ccc(OC)cc3)[C@@H]2C)c2cc(N3CCC3=O)ccc21 .
Out: 0.979

In: If you can, please state the reported composite z-score value of O=C(c1ccccc1)N1C(=O)[C@]2(COC(c3ccc(OCCCO)cc3)=N2)Cc2ccccc21 .
Out: 0.363

---

Entries and their measured composite z-score follow.
System: Wnt5a (protein binding on small-molecule microarray)
Protocol text: Wnt5a binders on small-molecule microarray, primary screen, biophysical, 635/667 nm fluorescence (AID 1142);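 also: fluorescence read at 667 nm with signal to noise per printed feature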
Experimental conditions: 635 nm fluorescence, higher = more signal

Please review the entries below; each comes with its answer.
CC1CC/C=C\[C@H]2OC34C=CCN(C(C)(C)C)C(=O)[C@H]3N(CCO)C(=O)[C@@H]4C2C(=O)O1 (some centres undefined); -0.276
C=C[C@H](CO[Si](CC)(CC)CC)N(Cc1ccc(OC(C)=O)c(OC)c1)S(=O)(=O)c1ccc(Br)cc1; 0.157
CCOC(=O)C[C@H]1[C@H](OC(=O)c2cc3ccccc3oc2=O)[C@@H](NC(=O)c2ccccc2)c2cc(OCCCO)ccc2N1C(=O)c1ccc2ccccc2n1; 0.343

In: If you can, please state the reported composite z-score value of Cc1ccc(S[C@]2(C(=O)NCCCN(C)C)CC(=O)N(Cc3ccccc3C(F)(F)F)[C@@H]2c2ccc(CO)cc2)cc1 .
Out: -0.197

---

Target under test: Calmodulin-1 (Homo sapiens)
Protocol text: calcium-bound CALM1 binders on microarrays, profiling panel, artefact control for SMM control-protein annotation, biochemical, small-molecule microarray, Cy5-labelled CALM1, plus calcium (AID 1112);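 also: score merges spot fluorescence with signal to noise from triplicate slides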
Experimental conditions: Cy5-CALM1 binding fluorescence, higher = more signal
Endpoint: composite z-score
Lab note: write the figure by itself, no unit.

In: If you can, please state the reported composite z-score value of COc1cccc(-c2cccc(=O)o2)c1 .
Out: -0.454

In: If you can, please state the reported composite z-score value of CC1CC/C=C\[C@H]2OC34C=CCN(C(C)(C)C)C(=O)[C@H]3N(CCO)C(=O)[C@@H]4C2C(=O)O1 (stereo not given in full) .
Out: -0.746

In: If you can, please state the reported composite z-score value of COC(=O)c1c(CC[C@@H](CO)NC(=O)NCCn2cc(C3(O)CCCC3)nn2)oc(C(C)=O)c1C(=O)OC .
Out: -0.732

In: If you can, please state the reported composite z-score value of COCCOC(=O)N1C(=O)[C@@]2(c3cc(C#Cc4ccc(OC)cc4)ccc31)[C@H](c1ccc(OCCO)cc1)N1[C@H](c3ccccc3)[C@H](c3ccccc3)OC(=O)[C@H]1[C@@H]2C(=O)N1CCN(c2ncccn2)CC1 .
Out: 0.715

In: If you can, please state the reported composite z-score value of COc1ccc(CCNC(=O)[C@@]2(C)c3ccccc3C(=O)N(C(C)C)[C@H]2c2ccc(CO)cc2)cc1 .
Out: -0.229

In: If you can, please state the reported composite z-score value of COc1cc2c(cc1OC)CN(C(=O)[C@@H]1[C@H]3C(=O)O[C@H](c4ccccc4)[C@H](c4ccccc4)N3[C@H](c3ccc(O)cc3)[C@@]13C(=O)Nc1ccccc13)CC2 .
Out: 0.603

In: If you can, please state the reported composite z-score value of [N-]=[N+]=NCc1ccccc1[C@@H]1OC(c2ccc(OCCCO)cc2)=N[C@]1(Cc1ccccc1)C(=O)NCC(O)CO (stereo not given in full) .
Out: 0.305

In: If you can, please state the reported composite z-score value of COc1cc(C(O)C2C=CC3C(=O)NC(=O)C3N2Nc2ccccn2)cc(OC)c1OC (stereo not given) .
Out: -0.62

In: If you can, please state the reported composite z-score value of COCCOC(=O)N1C(=O)[C@@]2(c3cc(C#CCCO)ccc31)[C@H](C(=O)N1CCCCCCC1)[C@H]1C(=O)O[C@H](c3ccccc3)[C@H](c3ccccc3)N1[C@@H]2c1ccc(OCCO)cc1 .
Out: 1.05

In: If you can, please state the reported composite z-score value of C=CCN1C(=O)[C@]2(O[C@H](CCn3cc([C@H](O)c4ccccc4)nn3)[C@@H]([Si](C)(C)c3ccc(OC)cc3)[C@@H]2C)c2cc(N3CCC3=O)ccc21 .
Out: -0.022

In: If you can, please state the reported composite z-score value of NC(=O)NCC#Cc1ccc2c(c1)[C@]1(C(=O)N2)[C@H](c2ccc(O)cc2)N2[C@H](c3ccccc3)[C@H](c3ccccc3)OC(=O)[C@H]2[C@@H]1C(=O)O .
Out: 0.521

In: If you can, please state the reported composite z-score value of CCCC[C@@H]1C[C@H]1[C@@H](NC(=O)c1ccco1)c1ccccc1C(F)(F)F .
Out: 1.2

---

Tested on: Fibrinogen (Alexa647-labelled)
Protocol text: fibrinogen binders on compound microarrays, profiling panel, artefact control for SMM control-protein annotation, biochemical, small-molecule microarray, 635/667 nm fluorescence (AID 1131);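 also: z-score merges 667 nm fluorescence with per-spot signal-to-noise over triplicate slides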
Experimental conditions: fibrinogen-A647 binding fluorescence, higher = more signal
Entries and their measured composite z-score follow.

CC(C)C(=C=CC[C@H](O)c1ccc(OCCO)cc1)CCO; 0.53

In: If you can, please state the reported composite z-score value of O=C1C[C@@](C(=O)NCCN2CCOCC2)(c2ccc([N+](=O)[O-])cc2)[C@@H](c2ccc(CO)cc2)N1CC12CC3CC(CC(C3)C1)C2 .
Out: 0.904

In: If you can, please state the reported composite z-score value of CC#CC(=O)Oc1ccccc1C=CC(=O)OCC .
Out: -0.0002

---

Entries and their measured composite z-score follow.
Test system: Chordin-like protein 2 (CHRDL2)
Protocol text: CHRDL2 small-molecule binders, primary screen, biochemical, small-molecule microarray, 635 nm fluorescence (AID 1126);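 also: printed compound slides probed with Chrdl2 protein at 4 µg/mL for 1 h at 4 C; score merges 667 nm emission intensity with signal to noise over three replicate slides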
Experimental conditions: small-molecule microarray binding, fluorescence 635 nm; higher = more signal
Lab note: write the figure by itself, no unit.

Please review the entries below; each comes with its answer.
C=CC(=C)[C@H]1Oc2ccccc2S(=O)(=O)N2CCC[C@@H]12; 0.634
CN(C)CCCCCCNC(=O)[C@@H]1C[C@@H]2C(=O)N[C@@H](Cc3ccccc3)C(=O)N2[C@@H]1c1ccc(O)cc1; 1.41
[N-]=[N+]=Nc1ccccc1[C@H]1OC(c2ccc(OCCCO)cc2)=N[C@@]1(CCS(=O)(=O)c1ccccc1)C(=O)NCC(O)CO (stereo not given in full); -0.907
[N-]=[N+]=NCc1ccccc1[C@@H]1OC(c2ccc(OCCCO)cc2)=N[C@]1(Cc1ccccc1)C(N)=O; -0.692

In: If you can, please state the reported composite z-score value of COCCOC(=O)N1C(=O)[C@@]2(c3cc(C#CCNC(N)=O)ccc31)[C@H](C(=O)Nc1nc3ccccc3s1)[C@H]1C(=O)O[C@H](c3ccccc3)[C@H](c3ccccc3)N1[C@@H]2c1ccc(OCCO)cc1 .
Out: 1.34

In: If you can, please state the reported composite z-score value of Cc1ccc([C@@H]2C[C@@H](Sc3ccccc3)[C@H](C(=O)O)CN2S(=O)(=O)c2ccc(C)cc2)cc1 .
Out: -0.144

In: If you can, please state the reported composite z-score value of CCc1cccc(NC(=O)O[C@H]2[C@H](OC(=O)Nc3ccccc3-c3ccccc3)[C@@H](OC(=O)Nc3ccccc3-c3ccccc3)[C@@H](OC)O[C@@H]2CO)c1 .
Out: -0.229
